Target: TLR5 protein from pGEX-6p-1 (GST-His*10-TEV-TLR5, digested with TEV protease), used for SPR (silvery pomfret (Pampus argenteus))
Assay: SPR; BIAcore S200; TLR5 immobilised on an SA sensor chip; flaB proteins injected at 30 uL/min in PBS-P, 25°C; 1:1 Langmuir fit

{"columns": ["binder", "Kd (µM)"],
 "data": [
  ["flaB mutant F8 (N312, Asn to Ala) (natural protein) MAINVSTNVSAMTAQRYLNNAADGTQKSMERLSSGYKINSARDDAAGLQISNRLTSQSRGLDMAVRNANDGISIAQTAEGAMNETTNILQRMRDLSLQSANGSNSSSERQAIQEEVSALNDELNRIAETTSFGGNKLLNGSFGNKSFQIGADSGEAVMLSMSDMRSDTKAMGGKSYVATNGKAPDWSVTNATDLTLSYTDKQGEAREVTINAKAGDDLEEVATYINGQNGDIKASVGDEGKLQLFAANQKVSSDVTIGGGLGTEIGFAAGKDVTVKDINVTTVGGSQEAVALIDGALKAVDSQRASLGAFQARFGHAISNLDNINENVNASRSRIKDTDYARETTQMTKSQILQQASTSVLAQAKQSPSAALSLLG", 3.8]
]}
